organism: Homo sapiens; assay: Selectivity index, ratio of Ki for human CB1 receptor to KI for human CB2 receptor
outcome_measure: Ratio Ki

Would you please look over these solved cases?
CCCCN(CCCC)c1ccc(C(NC(=O)Cc2ccccc2)NC(=O)Cc2ccccc2)cc1 ... > 90
O=C(Cc1ccccc1)NC(NC(=O)Cc1ccccc1)c1ccc(N2CCCC2)cc1 ... > 281
O=C(Cc1ccccc1)NC(NC(=O)Cc1ccccc1)c1ccc(C(F)(F)F)cc1 ... > 34
CCCCCCCC(=O)NC(NC(=O)CCCCCCC)c1ccc(N(CC)CC)cc1 ... > 136
CCN(CC)c1ccc(C(NC(=O)Cc2ccccc2)NC(=O)Cc2ccccc2)cc1 ... > 313

IN: Which Ratio Ki value is on record for `O=C(Cc1ccc(Cl)cc1)NC(NC(=O)Cc1ccc(Cl)cc1)c1ccc(C(F)(F)F)cc1` ?
OUT: > 198

IN: Which Ratio Ki value is on record for `Cc1ccc(C(NC(=O)Cc2ccc(Cl)cc2)NC(=O)Cc2ccc(Cl)cc2)cc1` ?
OUT: > 43

IN: Which Ratio Ki value is on record for `CCCCCC(=O)NC(NC(=O)CCCCC)c1ccc(N(CC)CC)cc1` ?
OUT: > 800

IN: Which Ratio Ki value is on record for `COc1ccc(C(NC(=O)Cc2ccc(Cl)cc2)NC(=O)Cc2ccc(Cl)cc2)cc1` ?
OUT: > 65

IN: Which Ratio Ki value is on record for `CCN(CC)c1ccc(C(NC(=O)c2ccccc2)NC(=O)c2ccccc2)cc1` ?
OUT: > 29
